The following compounds are shown together with reported pIC50 values.
Test system: HCT116 (human colon carcinoma) cells
Protocol summary: HCT116 cytotoxicity assay (CellTiter-Glo)
Type: cell-based
Details: HCT-116, 72 h, cytotoxicity, three days culture, read-out: HCT116 IC50
pIC50: −log10 of the molar value.
Measurement kind: pIC50

INSERT INTO assay_data (compound, measurement_kind, experimental_result) VALUES
  ('CN1CCC(C(=O)Nc2ccc3c(c2)N/C(=C(/C(N)=O)c2nccc(C(F)(F)F)n2)N3)CC1 [Compound 140A]', 'pIC50', 6.40),
  ('NC(=O)/C(=C1\Nc2cc(OCCN3CCOCC3)ccc2S1)c1nccc(C(F)(F)F)n1 [Compound 112A]', 'pIC50', 5.70),
  ('NC(=O)/C(=C1\Nc2ccc(-c3cccnc3)cc2N1)c1nccc(C(F)(F)F)n1 [Compound 107A]', 'pIC50', 5.30),
  ('NC(=O)C(=C1Nc2ccccc2N1)c1nccc(C(F)(F)F)n1', 'pIC50', 6.52),
  ('NC(=O)/C(=C1\Nc2ccc(NC(=O)Cn3ccnc3)cc2N1)c1nccc(C(F)(F)F)n1 [Compound 86A]', 'pIC50', 6.40),
  ('CCN1CCN(CCCNC(=O)c2ccc3c(c2)S/C(=C(/C(N)=O)c2nccc(C(F)(F)F)n2)N3)CC1 [Compound 56A]', 'pIC50', 7.40),
  ('NC(=O)/C(=C1\Nc2ccccc2S1)c1nccc(C(F)(F)F)n1', 'pIC50', 5.70),
  ('Cc1cc(C(F)(F)F)nc(C(C(N)=O)=C2Nc3ccc(NC(=O)[C@@H]4CCCN4C)cc3N2)n1 (single isomer, unassigned) [Compound 144A]', 'pIC50', 6.40),
  ('CN1CCCCC1C(=O)Nc1ccc2c(c1)N/C(=C(/C(N)=O)c1nccc(C(F)(F)F)n1)N2 (stereo not shown) [Compound 82A]', 'pIC50', 7.10),
  ('CCN1CCN(CCCNC(=O)c2ccc3c(c2)N/C(=C(/C(N)=O)c2nccc(C(F)(F)F)n2)N3)CC1 [Compound 55A]', 'pIC50', 6.52);

---

Tested on: HCT116 (human colon carcinoma) cells
Protocol summary: HCT116 cytotoxicity assay (CellTiter-Glo)
Format: cell-based
Details: HCT-116, 72 h, cytotoxicity, three days culture, read-out: HCT116 IC50
Measurement kind: IC50 (nM)

INSERT INTO measurements (compound, experimental_result) VALUES
  ('CN1CCN(CCCOc2ccc3c(c2)S/C(=C(/C(N)=O)c2nccc(C(F)(F)F)n2)N3)CC1 [Compound 115A]', 100),
  ('NC(=O)/C(=C1\Nc2ccccc2S1)c1nc(NCCN2CCOCC2)cc(C(F)(F)F)n1 [Compound 137A]', 2000),
  ('NC(=O)C(=C1Nc2ccccc2N1)c1nc(N)cc(C(F)(F)F)n1 [Compound 12A]', 400),
  ('NC(=O)/C(=C1\Nc2ccc(C(=O)O)cc2S1)c1nccc(C(F)(F)F)n1 [Compound 27A]', 7000);

---

# key: entry, value: IC50
Target or system: Aurora B kinase (Homo sapiens)
Sequence (Q96GD4 whole entry): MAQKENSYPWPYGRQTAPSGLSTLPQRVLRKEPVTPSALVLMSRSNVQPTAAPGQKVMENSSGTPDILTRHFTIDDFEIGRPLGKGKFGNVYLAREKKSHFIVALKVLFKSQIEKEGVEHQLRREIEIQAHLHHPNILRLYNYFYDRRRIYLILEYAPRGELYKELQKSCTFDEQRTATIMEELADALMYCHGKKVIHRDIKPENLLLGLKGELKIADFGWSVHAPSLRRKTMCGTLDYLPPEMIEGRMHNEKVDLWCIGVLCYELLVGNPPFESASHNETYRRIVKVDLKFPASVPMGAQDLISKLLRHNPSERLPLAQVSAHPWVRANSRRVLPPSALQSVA
Measurement kind: IC50 (nM)

INSERT INTO results (compound, target_or_system, experimental_result) VALUES
  ('NC(=O)/C(=C1\Nc2ccc(CCN3CCOCC3)cc2N1)c1nccc(C(F)(F)F)n1 [Compound 102A]', 'Aurora B kinase (Homo sapiens)', 7),
  ('CCN(CCCn1ccnc1)C(=O)c1ccc2c(c1)S/C(=C(/C(N)=O)c1nccc(C(F)(F)F)n1)N2 [Compound 49A]', 'Aurora B kinase (Homo sapiens)', 5),
  ('NC(=O)/C(=C1\Nc2ccc(C(=O)NCCN3CCOCC3)cc2S1)c1nccc(C(F)(F)F)n1 [Compound 54A]', 'Aurora B kinase (Homo sapiens)', 10),
  ('NC(=O)/C(=C1\Nc2ccc(CCn3ccnc3)cc2N1)c1nccc(C(F)(F)F)n1 [Compound 96A]', 'Aurora B kinase (Homo sapiens)', 3),
  ('NCCCNC(=O)c1ccc2c(c1)N/C(=C(/C(N)=O)c1nccc(C(F)(F)F)n1)N2 [Compound 64A]', 'Aurora B kinase (Homo sapiens)', 20),
  ('CCN(CC)CC(=O)N(CC)c1ccc2c(c1)N/C(=C(/C(N)=O)c1nccc(C(F)(F)F)n1)N2 [Compound 139A]', 'Aurora B kinase (Homo sapiens)', 2),
  ('CN1CCN(C(=O)c2ccc3c(c2)N/C(=C(/C(N)=O)c2nccc(C(F)(F)F)n2)N3)CC1 [Compound 58A]', 'Aurora B kinase (Homo sapiens)', 5),
  ('COC(=O)c1cc(C)nc(/C(C(N)=O)=C2/Nc3ccccc3S2)n1 [Compound 23A]', 'Aurora B kinase (Homo sapiens)', 6),
  ('NC(=O)/C(=C1\Nc2ccc(NCCN3CCOCC3)cc2S1)c1nccc(C(F)(F)F)n1 [Compound 124A]', 'Aurora B kinase (Homo sapiens)', 30),
  ('CCN(C(=O)[C@@H]1CCCN1C)c1ccc2c(c1)N/C(=C(/C(N)=O)c1nccc(C(F)(F)F)n1)N2 [Compound 145A]', 'Aurora B kinase (Homo sapiens)', 4),
  ('NC(=O)/C(=C1\Nc2ccc(Cn3ccnc3)cc2N1)c1nccc(C(F)(F)F)n1 [Compound 90A]', 'Aurora B kinase (Homo sapiens)', 9),
  ('NC(=O)/C(=C1\Nc2ccc(CO)cc2N1)c1nccc(C(F)(F)F)n1 [Compound 35A]', 'Aurora B kinase (Homo sapiens)', 5),
  ('NC(=O)/C(=C1\Nc2cc(F)c(C(=O)NCCCN3CCOCC3)cc2S1)c1nccc(C(F)(F)F)n1 [Compound 50A]', 'Aurora B kinase (Homo sapiens)', 10),
  ('CCc1cnc(/C(C(N)=O)=C2/Nc3ccccc3S2)nc1 [Compound 21A]', 'Aurora B kinase (Homo sapiens)', 100),
  ('NC(=O)/C(=C1\Nc2ccc(C(=O)NCCN3CCOCC3)cc2N1)c1nccc(C(F)(F)F)n1 [Compound 53A]', 'Aurora B kinase (Homo sapiens)', 10),
  ('Cc1cc(C(F)(F)F)nc(C(C(N)=O)=C2Nc3ccccc3N2)n1 [Compound 138A]', 'Aurora B kinase (Homo sapiens)', 8),
  ('NC(=O)/C(=C1\Nc2ccc(NC(=O)CCN3CCOCC3)cc2N1)c1nccc(C(F)(F)F)n1 [Compound 84A]', 'Aurora B kinase (Homo sapiens)', 9),
  ('NC(=O)/C(=C1\Nc2ccc(C(=O)NCCCn3ccnc3)cc2N1)c1nccc(C(F)(F)F)n1 [Compound 45A]', 'Aurora B kinase (Homo sapiens)', 7),
  ('NC(=O)/C(=C1\Nc2ccc(CCn3ccnc3)cc2S1)c1nccc(C(F)(F)F)n1 [Compound 95A]', 'Aurora B kinase (Homo sapiens)', 4),
  ('NC(=O)/C(=C1\Nc2ccccc2S1)c1nc(-c2ccccn2)cc(C(F)(F)F)n1 [Compound 11A]', 'Aurora B kinase (Homo sapiens)', 10),
  ('NC(=O)/C(=C1\Nc2ccc(C(=O)N3CCNCC3)cc2N1)c1nccc(C(F)(F)F)n1 [Compound 60A]', 'Aurora B kinase (Homo sapiens)', 7),
  ('NC(=O)/C(=C1\Nc2ccc(C(=O)N3CCC(N)CC3)cc2N1)c1nccc(C(F)(F)F)n1 [Compound 66A]', 'Aurora B kinase (Homo sapiens)', 10),
  ('NCCCNC(=O)c1ccc2c(c1)S/C(=C(/C(N)=O)c1nccc(C(F)(F)F)n1)N2 [Compound 65A]', 'Aurora B kinase (Homo sapiens)', 20),
  ('Cc1cc(C(F)(F)F)nc(/C(C(N)=O)=C2/Nc3ccccc3S2)n1', 'Aurora B kinase (Homo sapiens)', 8),
  ('NC(=O)/C(=C1\Nc2cc(F)c(Cl)cc2N1)c1nccc(C(F)(F)F)n1 [Compound 37A]', 'Aurora B kinase (Homo sapiens)', 20);

---

Target or system: VEGFR2 kinase (Homo sapiens)
Sequence (P35968 20-1356): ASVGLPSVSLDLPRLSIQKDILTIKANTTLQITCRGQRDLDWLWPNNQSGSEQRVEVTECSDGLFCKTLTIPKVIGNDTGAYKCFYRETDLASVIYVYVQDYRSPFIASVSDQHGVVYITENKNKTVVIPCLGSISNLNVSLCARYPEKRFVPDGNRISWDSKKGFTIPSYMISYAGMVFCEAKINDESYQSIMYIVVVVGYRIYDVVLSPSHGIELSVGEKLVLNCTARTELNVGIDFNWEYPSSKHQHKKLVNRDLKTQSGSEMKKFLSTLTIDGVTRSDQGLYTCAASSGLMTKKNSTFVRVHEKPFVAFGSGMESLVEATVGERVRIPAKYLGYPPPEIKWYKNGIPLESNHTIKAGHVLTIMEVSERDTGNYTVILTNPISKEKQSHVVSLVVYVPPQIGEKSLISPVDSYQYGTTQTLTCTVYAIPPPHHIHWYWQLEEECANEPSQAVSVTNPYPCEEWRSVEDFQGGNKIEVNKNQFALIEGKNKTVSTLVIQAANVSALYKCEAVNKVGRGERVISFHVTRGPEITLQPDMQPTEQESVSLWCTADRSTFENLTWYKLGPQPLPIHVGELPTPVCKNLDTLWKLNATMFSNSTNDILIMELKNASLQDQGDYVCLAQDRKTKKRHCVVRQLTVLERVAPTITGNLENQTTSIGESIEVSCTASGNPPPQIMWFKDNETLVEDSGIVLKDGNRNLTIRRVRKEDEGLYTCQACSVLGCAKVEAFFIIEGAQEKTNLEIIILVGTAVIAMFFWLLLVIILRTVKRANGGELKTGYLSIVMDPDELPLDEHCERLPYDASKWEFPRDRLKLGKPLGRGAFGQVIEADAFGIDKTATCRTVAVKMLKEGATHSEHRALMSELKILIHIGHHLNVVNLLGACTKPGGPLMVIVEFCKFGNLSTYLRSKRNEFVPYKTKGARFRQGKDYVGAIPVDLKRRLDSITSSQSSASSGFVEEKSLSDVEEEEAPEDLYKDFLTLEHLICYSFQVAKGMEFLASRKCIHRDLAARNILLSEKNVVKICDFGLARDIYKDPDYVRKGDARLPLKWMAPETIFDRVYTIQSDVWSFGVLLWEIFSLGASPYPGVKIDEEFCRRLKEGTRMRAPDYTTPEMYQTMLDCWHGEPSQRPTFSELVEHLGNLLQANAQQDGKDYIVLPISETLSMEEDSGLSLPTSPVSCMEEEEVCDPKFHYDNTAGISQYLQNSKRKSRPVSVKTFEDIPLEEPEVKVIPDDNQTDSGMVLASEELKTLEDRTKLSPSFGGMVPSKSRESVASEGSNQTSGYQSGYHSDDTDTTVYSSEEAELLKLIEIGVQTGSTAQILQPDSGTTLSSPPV
pIC50: −log10 of the molar value.
pIC50 overview
Measurement kind: pIC50

INSERT INTO measurements (compound, experimental_result) VALUES
  ('CCN1CCN(CCCNC(=O)c2ccc3c(c2)S/C(=C(/C(N)=O)c2nccc(C(F)(F)F)n2)N3)CC1 [Compound 56A]', 7.70),
  ('COc1cc(C(F)(F)F)nc(/C(C(N)=O)=C2/Nc3ccccc3S2)n1', 6.70),
  ('NC(=O)/C(=C1\Nc2ccc(C(=O)NCCN3CCOCC3)cc2S1)c1nccc(C(F)(F)F)n1 [Compound 54A]', 8.00),
  ('NC(=O)/C(=C1\Nc2ccc(OCCN3CCOCC3)cc2S1)c1nccc(C(F)(F)F)n1 [Compound 111A]', 7.00),
  ('NCCNC(=O)c1ccc2c(c1)S/C(=C(/C(N)=O)c1nccc(C(F)(F)F)n1)N2 [Compound 63A]', 8.30),
  ('CCc1cnc(/C(C(N)=O)=C2/Nc3ccccc3S2)nc1 [Compound 21A]', 6.00),
  ('NC(=O)/C(=C1\Nc2ccc(C(=O)N3CCNCC3)cc2S1)c1nccc(C(F)(F)F)n1 [Compound 61A]', 8.40),
  ('Cc1ccnc(/C(C(N)=O)=C2/Nc3ccccc3S2)n1 [Compound 18A]', 6.30);
